The entries below are paired with their reported protein stability index.
B1: ACSBG2 (parent)
chain: TPMTIPEFFRESVNRFGTYPALAS

- Variants of: B1
- test: protein stability index of a GFP-peptide fusion (GPS, HEK-293T) (PSI 1-6); higher = more stable;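 also: lentivirally expressed fusions sorted by FACS into six bins by GFP to DsRed ratio, PSI derived from sequencing read proportions per bin multiplied by bin number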
- test-settings: c terminus: a fixed tail appended
# respond with the number and nothing more

As a guide, the following entries are already answered.
variant-name: F9V
protein stability index: 2.36
//
variant-name: P6M
protein stability index: 3.03
//
variant-name: S24V
protein stability index: 1.37
//
variant-name: G17R
protein stability index: 2.42
//
variant-name: E7I
protein stability index: 2.65

Summary for this variant, "P6F" : protein stability index is 4.36

Summary for this variant, "A21D" : protein stability index is 2.84

Summary for this variant, "T1V" : protein stability index is 1.93

Summary for this variant, "E7T" : protein stability index is 2.19

Summary for this variant, "E11T" : protein stability index is 2.17
